system: T1, human ACVR2A (human, UniProt P27037 20-135, limits assumed); also: test concentration or dose not given here
T1 construct: also called activin receptor, type II A
T1 sequence (P27037 20-135 limits assumed): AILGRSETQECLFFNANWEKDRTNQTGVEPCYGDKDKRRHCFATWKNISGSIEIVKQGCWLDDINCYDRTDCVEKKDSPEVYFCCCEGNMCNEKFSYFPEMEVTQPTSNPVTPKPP
test-name: ELISA
Each entry below carries its reported optical density.
Kindly provide the numeric value in OD only, without the unit symbol.

Worked examples follow.
binder | measurement-name | unit-info | endpoint-result
366_E01 (antibody, V domains shown, Group III) VH: EVQLLESGGGLVQPGGSLRLSCAASGFTFDSYGMNWVRQAPGKGLEWVSNINYNGGYKSYADSVKGRFTISRDNSKNTLYLQMNSLRAEDTAVYYCARGANWHDTHLDYWGQGTLVTVSS VL: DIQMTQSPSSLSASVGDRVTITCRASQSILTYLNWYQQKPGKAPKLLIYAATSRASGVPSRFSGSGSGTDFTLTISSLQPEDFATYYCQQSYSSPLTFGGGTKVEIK | optical density | OD | 2.69
372_B11 (antibody, V domains shown, Group I) VH: EVQLLESGGGLVQPGGSLRLSCAASGFTFSSYSMHWVRQAPGKGLEWVAGINYNSGYTSYADSVKGRFTISRDNSKNTLYLQMNSLRAEDTAVYYCARAANWHDTHLDYWGQGTLVTVSS VL: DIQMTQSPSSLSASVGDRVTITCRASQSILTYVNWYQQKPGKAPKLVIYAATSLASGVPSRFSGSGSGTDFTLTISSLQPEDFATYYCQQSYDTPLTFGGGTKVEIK | optical density | OD | 2.31
366_G12 (antibody, V domains shown, Group III) VH: EVQLLESGGGLVQPGGSLRLSCAASGFTFSSYGMHWVRQAPGKGLEWVSGINYNSGYKGYADSVKGRFTISRDNSKNTLYLQMNSLRAEDTAVYYCARGANWHDTHLDYWGQGTLVTVSS VL: DIQMTQSPSSLSASVGDRVTITCRASQSILSYLNWYQQKPGKAPKLLIYAATSRHSGVPSRFSGSGSGTDFTLTISSLQPEDFATYYCQQSYNTPLTFGGGTKVEIK | optical density | OD | 2.71

Item under review: 369_C06 (antibody, V domains shown, Group II) VH: EVQLLESGGGLVQPGGSLRLSCAASGFTFSSYSMHWVRQAPGKGLEWVSSINYNGGYKSYADSVKGRFTISRDNSKNTLYLQMNSLRAEDTAVYYCARAATWHDTHLDYWGQGTLVTVSS VL: DIQMTQSPSSLSASVGDRVTITCRASQSILSYVNWYQQKPGKAPKLLIYAATSRASGVPSRFSGSGSGTDFTLTISSLQPEDFATYYCQQSYDSPLTFGGGTKVEIK . Reported optical density?
2.75

Could you do the same for 374_H02 (antibody, V domains shown, Group II) VH: EVQLLESGGGLVQPGGSLRLSCAASGFTFSSYGMHWVRQAPGKGLEWVASINYNGGYTSYADSVKGRFTISRDNSKNTLYLQMNSLRAEDTAVYYCARAATWHDTHLDYWGQGTLVTVSS VL: DIQMTQSPSSLSASVGDRVTITCRASQSILSYVNWYQQKPGKAPKLLIYAATSLASGVPSRFSGSGSGTDFTLTISSLQPEDFATYYCQQSYDTPLTFGGGTKVEIK , please?
3.26
